Data provenance: ChEMBL document CHEMBL1141403

# System: Plasmodium yoelii nigeriensis
# assay_explanation: Antimalarial activity against Plasmodium yoelii nigeriensis infected Swiss mice (Mus musculus) at 96 mg/kg intramuscular dose over 4 days
# Type: functional
readout_kind: Activity (%)
Report the figure in % without appending any unit label.

> print(dat)
                                   molecule  reported.value
1  C=C(c1ccc2c(c1)Cc1ccccc1-2)C1COC2(OO1)C1CC3CC(C1)CC2C3 (centres undefined)             100
2  C=C(c1cccc2ccccc12)C1COC2(OO1)C1CC3CC(C1)CC2C3 (centres undefined)              87
3  C=C(c1ccc2c(c1)CCCC2)C1COC2(OO1)C1CC3CC(C1)CC2C3 (centres undefined)             100
4  C=C(c1ccc2c(ccc3ccccc32)c1)C1COC2(OO1)C1CC3CC(C1)CC2C3 (centres undefined)             100
5  C=C(C1COC2(CCCC2)OO1)C12CC3CC(CC(C3)C1)C2 (centres undefined)              38

## Input Please report Activity for the following molecule: C=C(c1ccc2ccc3ccccc3c2c1)C1COC2(OO1)C1CC3CC(C1)CC2C3 (centres undefined)
## Output 69

## Input Please report Activity for the following molecule: C=C(c1ccccc1)C1COC2(OO1)C1CC3CC(C1)CC2C3 (centres undefined)
## Output 97

## Input Please report Activity for the following molecule: C=C(C1COC2(OO1)C1CC3CC(C1)CC2C3)C12CC3CC(CC(C3)C1)C2 (centres undefined)
## Output 14

## Input Please report Activity for the following molecule: C=C(c1ccc2ccccc2c1)C1COC2(OO1)C1CC3CC(C1)CC2C3 (centres undefined)
## Output 71
